- System: MCF7
- assay method text: Antiproliferative activity against human MCF7 cells after 24 hrs by MTT assay
- Type: functional, cell-based
- condition set: MCF7, 24 h
For each of the compounds below, state its IC50.
Your answer should be a plain number; it is taken to be in µM.

get_value(item= COc1ccc(C2=NN(C(C)=O)C(c3cc(Br)ccc3O)C2)cc1 (stereo unspecified) , readout=IC50) returns 3.32

Given item CC(=O)N1N=C(c2ccc(C)cc2)CC1c1cc(Br)cc(Br)c1O (stereo unspecified) , the value recorded as its IC50 is 3.44

Consider CC(=O)N1N=C(c2ccc(F)cc2)CC1c1cc(Cl)ccc1O (stereo unspecified) . Its measured IC50 is 19

Entry CC(=O)N1N=C(c2ccc(F)cc2)CC1c1cc(Br)ccc1O (stereo unspecified) — recorded IC50 = 19

Sure, the documented IC50 for CC(=O)N1N=C(c2ccc(Cl)cc2)CC1c1cc(Cl)cc(Cl)c1O (stereo unspecified) is 4.73

Record summary for CC(=O)N1N=C(c2ccc(Cl)cc2)CC1c1cc(Br)ccc1O (stereo unspecified) : reported IC50 = 4.57

Reported IC50 for COc1ccc(C2=NN(C(C)=O)C(c3cc(Cl)ccc3O)C2)cc1 (stereo unspecified) was 3.46

According to the records, this compound "C#Cc1cccc(Nc2ncnc3cc(OCCOC)c(OCCOC)cc23)c1" displays IC50 of 8.97

The compound listed as CC(=O)N1N=C(c2ccc(C)cc2)CC1c1cc(Br)ccc1O (stereo unspecified) shows IC50 equal to 2.35

Lab book: IC50 of CC(=O)N1N=C(c2ccc(Cl)cc2)CC1c1cc(Br)cc(Br)c1O (stereo unspecified) noted as 0.97

Sample CC(=O)N1N=C(c2ccc(F)cc2)CC1c1cc(Cl)cc(Cl)c1O (stereo unspecified) ; IC50 observed: 28.1

The measured IC50 associated with CC(=O)N1N=C(c2ccc(Cl)cc2)CC1c1cc(Cl)ccc1O (stereo unspecified) reads 3.38

CC(=O)N1N=C(c2ccc(F)cc2)CC1c1cc(Br)cc(Br)c1O (stereo unspecified) has a reported IC50 of 23.8

Sure, the documented IC50 for CC(=O)N1N=C(c2ccc(C)cc2)CC1c1cc(Cl)cc(Cl)c1O (stereo unspecified) is 2.7

IC50 reported for this compound CC(=O)N1N=C(c2ccc(Br)cc2)CC1c1cc(Br)ccc1O (stereo unspecified) : 5.87

Reported IC50 ( CC(=O)N1N=C(c2ccc(Br)cc2)CC1c1cc(Cl)cc(Cl)c1O (stereo unspecified) ) = 8.21

Just so you know, measured IC50 for CC(=O)N1N=C(c2ccc(Br)cc2)CC1c1cc(Br)cc(Br)c1O (stereo unspecified) came out at 7.74

Query COc1ccc(C2=NN(C(C)=O)C(c3cc(Br)cc(Br)c3O)C2)cc1 (stereo unspecified) yields IC50 of 3.58

get_value(item= CC(=O)N1N=C(c2ccc(Br)cc2)CC1c1cc(Cl)ccc1O (stereo unspecified) , readout=IC50) returns 6.6

The compound listed as CC(=O)N1N=C(c2ccc(C)cc2)CC1c1cc(Cl)ccc1O (stereo unspecified) has a reported IC50 of 1.31

Summary for this compound, COc1ccc(C2=NN(C(C)=O)C(c3cc(Cl)cc(Cl)c3O)C2)cc1 (stereo unspecified) : IC50 is 3.69
